Reported % 25 nM CA200645 binding values for a set of molecules
TARGET DESC: human A3AR (Homo sapiens, UniProt P0DMS8)
Construct: expressed in transfected cells
Sequence (P0DMS8 whole entry): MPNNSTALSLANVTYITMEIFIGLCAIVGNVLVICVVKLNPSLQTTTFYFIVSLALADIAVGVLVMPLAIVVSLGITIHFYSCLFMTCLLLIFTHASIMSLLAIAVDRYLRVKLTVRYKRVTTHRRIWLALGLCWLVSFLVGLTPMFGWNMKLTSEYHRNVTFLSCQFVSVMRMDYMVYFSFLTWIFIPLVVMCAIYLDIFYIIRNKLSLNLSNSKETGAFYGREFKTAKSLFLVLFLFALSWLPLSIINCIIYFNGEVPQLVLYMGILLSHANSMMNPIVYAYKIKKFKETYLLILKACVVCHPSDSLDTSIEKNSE
TEST: LOPAC library primary screen: single concentration (10 μM) inhibition of 25 nM CA200645 binding, PHERAstar FS
Structures can show the parent of a compound that is named as a salt.
Give the number; % is assumed, so skip it.

Recorded results for 7 molecules are shown here.
O=c1[nH]cc(F)c(=O)[nH]1 = 98.8
C=C1C[C@@]23CC[C@H]4[C@@](C)(CCC[C@@]4(C)C(=O)O)[C@@H]2CC[C@]1(O)C3 = 95.9
CCCCS(=N)(=O)CC[C@H](N)C(=O)O (some centres unmarked) = 98.1
CC[C@@H](CO)NC(=O)[C@@H]1C=C2c3cccc4[nH]cc(c34)C[C@H]2N(C)C1 [Methylergonovine maleate] = 91.6
CNC[C@H](O)c1ccc(O)c(O)c1 [(-)-Epinephrine bitartrate] = 100.5
CC1=C(/C=C/C(C)=C/C=C/C(C)=C\C(=O)O)C(C)(C)CCC1 [13-cis-retinoic acid] = 85.2
COc1cc([C@@H]2c3cc4c(cc3[C@H](O)[C@H]3COC(=O)[C@H]23)OCO4)cc(OC)c1OC = 97.7

Lab note: next molecule to report on.
Query :: What does the record list as % 25 nM CA200645 binding for CN(C)CCOC(=O)COc1ccc(Cl)cc1 [Centrophenoxine hydrochloride] ?
Result :: 90.4
